# TARGET OF ASSAY: G-protein coupled receptor 151 (Homo sapiens) (UniProt Q8TDV0)
# Sequence (Q8TDV0 whole entry, looked up): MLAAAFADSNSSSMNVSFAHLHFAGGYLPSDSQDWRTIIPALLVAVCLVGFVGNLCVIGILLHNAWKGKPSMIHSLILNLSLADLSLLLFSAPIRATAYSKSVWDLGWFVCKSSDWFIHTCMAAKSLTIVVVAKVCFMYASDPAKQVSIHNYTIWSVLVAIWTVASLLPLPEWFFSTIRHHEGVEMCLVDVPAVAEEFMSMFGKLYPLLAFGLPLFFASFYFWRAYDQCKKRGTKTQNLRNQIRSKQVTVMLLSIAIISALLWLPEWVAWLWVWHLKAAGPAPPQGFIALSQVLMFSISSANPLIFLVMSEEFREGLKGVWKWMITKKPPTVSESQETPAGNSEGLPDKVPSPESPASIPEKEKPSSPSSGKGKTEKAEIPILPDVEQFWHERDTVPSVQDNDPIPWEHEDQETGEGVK
# ASSAY REMARKS: activators of human GPR151, primary screen, cell-based, PathHunter beta-arrestin, luminescence (AID 1508602);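 note: 0% = median of compound wells and 100% = cells with positive control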
# PROTOCOL CONDITIONS: PathHunter beta-arrestin GPR151 cells, at 11.2 µM, stronger effect = higher value
Screen size: about 650,000 compounds; about 6,800 (1%) were called active. This excerpt belongs to a sample that is enriched for actives.
Answer each item with its documented activation.
Hi! Could you send only the number? It should be in %, unit omitted.

Suppose we examine the compound "CCn1c(SCC(=O)O)nc2sc3c(c2c1=O)CC(C)(C)OC3" ; what activation value has been reported?
-0.501

State the recorded activation for this entry: "FC(F)(F)c1cccc(CNc2nc(Nc3ccc(N4CCOCC4)cc3)nc3c2ncn3-c2ccsc2)c1"
0.773

# input compound: "CCOC(=O)c1[nH]c2ccc(OC)cc2c1NC(=O)CN(C)C" ; wanted: its activation
6.75

Need activation, item CCOc1ccccc1CNCC(C)O (configuration not stated)
-1.22

What does the record list as activation for "C1CCC(Nc2nc3nonc3nc2NC2CCCCC2)CC1" ?
-0.129

Please report the recorded activation for "CCC(CC)C(=O)Nc1ccc(S(=O)(=O)Nc2ncccn2)cc1" .
-0.125

Give the measured activation of "O=C(Cc1csc(SCc2cccc(Cl)c2)n1)NC1CCCC1" .
-0.537

So what does the record say about activation for "O=C(Nc1ccccc1)c1ccc2nc(Br)sc2c1" ?
-4.09

Please report the recorded activation for CCN(CC)C(=O)C1CCCN(c2ncc(C)c(NCc3cccc(C(F)(F)F)c3)n2)C1 (configuration not stated) .
5.92

Query: activation; subject: "C=C(C)CSc1nc2sc3c(c2c(=O)n1-c1ccc(OC)cc1)CC(C)(C)OC3"
5.02

Look at this compound and give its reported activation. "Brc1cnc(NC2CCCCC2)nc1"
7.99

activation lookup needed for "Cc1ccc(NC(=O)c2c[nH]c(=O)[nH]c2=O)cc1S(=O)(=O)N1CCCCC1" , thanks.
-0.749

// query activation value for entry "Cc1ccsc1C(=O)OCc1nc2ccccc2s1"
-2.54

Could you tell me which activation is on file for "Cc1ccc(OCC(=O)Nc2nncs2)cc1" ?
0.547

What does the data say about its activation? Entry: "COC(=O)CSc1nc2sc3c(c2c(=O)n1C1CCCCC1)CC(C)(C)OC3"
-0.897

Item CCN(CC)C(=O)C1CCCN(c2nc(NCc3cccc(C(F)(F)F)c3)c3cc(OC)c(OC)cc3n2)C1 (configuration not stated) has what recorded activation?
-0.297

# query: activation of entry CCC(C)OC(=O)C1=C(C)NC2=C(C(=O)CC(c3ccccc3)C2)C1c1ccccc1OCc1ccccc1 (configuration not stated)
1.93

Sample "FC(F)(F)c1cccc(CNc2ncnc3nc(N4CCOCC4)[nH]c23)c1" — what was its activation?
1.38

Look at this compound and give its reported activation. O=C1CCC(CCC(=O)N2CCCC2)(Cc2cccc3ccccc23)N1 (configuration not stated)
0.278

What does the data say about its activation? Entry: "COC(=O)c1ccc2c(=O)n(CCN3CCOCC3)c(SCc3cc(C(C)=O)ccc3OC)nc2c1"
-0.152

What measured activation goes with "CC(=O)Nc1ccc(NC(=O)c2ccc3nc(Br)sc3c2)cc1" ?
6.16

Item "CCOC(=O)c1[nH]c2ccc(OC)cc2c1NC(=S)N1CCN(c2ncccn2)CC1" has what recorded activation?
2.39
